# METHOD: Stability assay in human plasma
# Type: in vitro ADME
# STUDY CONDITIONS: 1 μM compound, LC-MS/MS, read-out: t½ human plasma
Give measured half-life at 1 μM for each item. Keep answers brief.

Record summary for O=C(OCc1ccccc1)c1cccc(CN2CCCC(Nc3ccc4[nH]ncc4c3)C2)c1 (stereo not drawn) [Compound 18] : reported half-life at 1 μM = 26 min

Record summary for O=C(OCC1CC1)c1cccc(CN2CCCC(Nc3cccc4cnccc34)C2)c1 (stereo not drawn) [Compound 1] : reported half-life at 1 μM = 49 min

Record summary for O=C(Oc1ccccc1)c1cccc(CN2CCCC(Nc3cccc4cnccc34)C2)c1 (stereo not drawn) [Compound 3] : reported half-life at 1 μM = 19 min

Record summary for O=C(OCC1CCCO1)c1cccc(CN2CCCC(Nc3ccc4[nH]ncc4c3)C2)c1 (stereo not drawn) [Compound 14] : reported half-life at 1 μM = < 5 min

Record summary for COC(=O)Cc1cccc(NC(=O)c2cccc(CN3CCC(Nc4cccc5cnccc45)C3)c2)c1 (stereo not drawn) [Compound 33] : reported half-life at 1 μM = < 4 min

Record summary for O=C1OCC(CCNC(=O)c2cccc(CN3CCCC(Nc4cccc5cnccc45)C3)c2)O1 (stereo not drawn) [Compound 27] : reported half-life at 1 μM = 4 min

Record summary for COC(=O)Cc1ccc(NC(=O)c2cccc(CN3CCCC(Nc4ccc5[nH]ncc5c4)C3)c2)cc1 (stereo not drawn) [Compound 40] : reported half-life at 1 μM = 40 min

Record summary for COC(=O)Cc1ccc(NC(=O)Cc2cccc(CN3CCCC(Nc4ccc5[nH]ncc5c4)C3)c2)cc1 (stereo not drawn) [Compound 44] : reported half-life at 1 μM = < 5 min

Record summary for O=C(NCCSC1CCOC1=O)c1cccc(CN2CCCC(Nc3cccc4cnccc34)C2)c1 (stereo not drawn) [Compound 26] : reported half-life at 1 μM = 5 min

Record summary for O=C(OCc1ccccc1)c1cccc(CN2CCCC(Nc3cccc4cnccc34)C2)c1 (stereo not drawn) [Compound 2] : reported half-life at 1 μM = 53 min

Record summary for O=C1OCC(CCNC(=O)c2cccc(CN3CCCC(Nc4ccc5[nH]ncc5c4)C3)c2)O1 (stereo not drawn) [Compound 29] : reported half-life at 1 μM = < 5 min

Record summary for COC(=O)Cc1ccc(NC(=O)c2cccc(CN3CCC(Nc4cccc5cnccc45)C3)c2)cc1 (stereo not drawn) [Compound 36] : reported half-life at 1 μM = 24 min

###

# METHOD: Stability assay in rabbit aqueous humor
# Type: in vitro ADME
# STUDY CONDITIONS: rabbit, aqueous humor, 1 μM in rabbit aqueous humor; read-out: t½ AH
Give measured half-life at 1 μM for each item. Keep answers brief.

Record summary for O=C(OCC1CC1)c1cccc(CN2CCCC(Nc3ccc4[nH]ncc4c3)C2)c1 (stereo not shown) [Compound 17] : reported half-life at 1 μM = > 2 h

Record summary for COC(=O)c1ccc(NC(=O)c2cccc(CN3CCCC(Nc4cccc5cnccc45)C3)c2)cc1 (stereo not shown) [Compound 25] : reported half-life at 1 μM = > 2 h

Record summary for COC(=O)c1ccc(NC(=O)c2cccc(CN3CCC(Nc4cccc5cnccc45)C3)c2)cc1 (stereo not shown) [Compound 35] : reported half-life at 1 μM = > 2 h

Record summary for COC(=O)Cc1cccc(NC(=O)c2cccc(CN3CCC(Nc4cccc5cnccc45)C3)c2)c1 (stereo not shown) [Compound 33] : reported half-life at 1 μM = 0.983 h

###

# TEST SYSTEM: ROCK2 (Homo sapiens, UniProt O75116)
# Sequence (O75116 whole entry, species assumed): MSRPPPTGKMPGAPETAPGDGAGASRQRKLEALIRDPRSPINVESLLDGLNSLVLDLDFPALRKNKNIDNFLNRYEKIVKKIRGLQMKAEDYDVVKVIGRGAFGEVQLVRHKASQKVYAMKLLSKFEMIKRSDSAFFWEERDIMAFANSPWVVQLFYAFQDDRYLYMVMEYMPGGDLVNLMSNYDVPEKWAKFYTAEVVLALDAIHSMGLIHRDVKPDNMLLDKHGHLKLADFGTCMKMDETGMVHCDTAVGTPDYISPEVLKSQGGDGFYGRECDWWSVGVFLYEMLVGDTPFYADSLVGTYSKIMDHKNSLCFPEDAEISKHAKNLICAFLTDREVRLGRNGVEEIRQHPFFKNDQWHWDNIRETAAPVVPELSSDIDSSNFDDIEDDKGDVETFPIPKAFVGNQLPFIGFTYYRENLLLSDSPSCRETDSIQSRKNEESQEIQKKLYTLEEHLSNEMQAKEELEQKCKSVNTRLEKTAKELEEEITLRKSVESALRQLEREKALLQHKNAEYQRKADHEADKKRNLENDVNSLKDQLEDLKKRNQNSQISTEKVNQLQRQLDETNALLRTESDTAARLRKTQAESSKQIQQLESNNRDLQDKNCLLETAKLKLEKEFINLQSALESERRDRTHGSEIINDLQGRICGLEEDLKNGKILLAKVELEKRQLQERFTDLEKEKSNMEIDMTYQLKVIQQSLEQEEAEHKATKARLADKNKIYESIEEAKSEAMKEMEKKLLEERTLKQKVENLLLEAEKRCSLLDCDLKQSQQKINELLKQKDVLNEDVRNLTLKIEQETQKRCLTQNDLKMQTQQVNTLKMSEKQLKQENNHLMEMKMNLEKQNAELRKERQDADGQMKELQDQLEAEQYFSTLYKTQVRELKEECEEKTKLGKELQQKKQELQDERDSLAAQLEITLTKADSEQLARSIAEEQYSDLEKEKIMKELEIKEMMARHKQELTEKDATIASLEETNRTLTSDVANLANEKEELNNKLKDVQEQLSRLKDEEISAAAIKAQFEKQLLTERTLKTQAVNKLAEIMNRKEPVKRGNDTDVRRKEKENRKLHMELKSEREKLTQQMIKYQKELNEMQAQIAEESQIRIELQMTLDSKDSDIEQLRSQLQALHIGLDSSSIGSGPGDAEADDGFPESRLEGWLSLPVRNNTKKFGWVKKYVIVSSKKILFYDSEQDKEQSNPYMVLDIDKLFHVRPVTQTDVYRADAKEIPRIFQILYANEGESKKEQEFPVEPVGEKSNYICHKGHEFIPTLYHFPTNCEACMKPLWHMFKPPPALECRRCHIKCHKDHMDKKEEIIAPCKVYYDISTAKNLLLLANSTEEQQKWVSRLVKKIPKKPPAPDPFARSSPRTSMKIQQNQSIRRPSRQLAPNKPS
# METHOD: Kinase inhibition (ROCKI & ROCKII), radiometric 33P-ATP biochemical assay
# STUDY CONDITIONS: comparison table
IC50 strictly under 3 nM means y; at 3 nM or over means n.

Just wondering, is IC50 of O=C(NCCSC1CCOC1=O)c1cccc(CN2CCCC(Nc3cccc4cnccc34)C2)c1 (centres unmarked) below 3 nM? y

Just wondering, is IC50 of O=C(OCC1CCCO1)c1cccc(CN2CCCC(Nc3ccc4[nH]ncc4c3)C2)c1 (centres unmarked) below 3 nM? n

Just wondering, is IC50 of CCOC(=O)COc1cccc(CN2CCCC(Nc3ccc4[nH]ncc4c3)C2)c1 (racemic) [Compound 1.060, reference compound] below 3 nM? n

Just wondering, is IC50 of COC(=O)c1cccc(NC(=O)c2cccc(CN3CCC(Nc4cccc5cnccc45)C3)c2)c1 (centres unmarked) below 3 nM? n

Just wondering, is IC50 of CS(=O)(=O)Nc1cccc(CN2CCCC(Nc3ccc4[nH]ncc4c3)C2)c1 (centres unmarked) [Compound 1.091, reference compound] below 3 nM? y

###

# METHOD: Stability assay in human plasma
# Assay type: in vitro ADME
# STUDY CONDITIONS: 1 μM compound, LC-MS/MS, read-out: t½ human plasma
ASSAY ENDPOINT: half-life at 1 μM (min)
Please give a number only; it is taken to be in min.

Record summary for O=C(OCC1CCCO1)c1cccc(CN2CCCC(Nc3cccc4cnccc34)C2)c1 (centres unmarked) [Compound 15] : reported half-life at 1 μM = 5

Record summary for COC(=O)c1cccc(NC(=O)Cc2cccc(CN3CCCC(Nc4ccc5[nH]ncc5c4)C3)c2)c1 (centres unmarked) [Compound 41] : reported half-life at 1 μM = 10

Record summary for O=C(OCC1CC1)c1cccc(CN2CCCC(Nc3ccc4[nH]ncc4c3)C2)c1 (centres unmarked) [Compound 17] : reported half-life at 1 μM = 25

Record summary for COC(=O)c1cccc(NC(=O)c2cccc(CN3CCC(Nc4cccc5cnccc45)C3)c2)c1 (centres unmarked) [Compound 32] : reported half-life at 1 μM = 25

###

Give measured IC50 for each item. Keep answers brief.
# TEST SYSTEM: ROCK2 (Homo sapiens)
# METHOD: Kinase inhibition (ROCKI & ROCKII), radiometric 33P-ATP biochemical assay
# STUDY CONDITIONS: ROCK 1 nM, 120 min at room temperature

Record summary for COC(=O)c1ccc(NC(=O)c2cccc(CN3CCC(Nc4cccc5cnccc45)C3)c2)cc1 (centres unmarked) : reported IC50 = < 100 nM

Record summary for CCOC(=O)c1cccc(CN2CCC(Nc3cccc4cnccc34)C2)c1 (centres unmarked) : reported IC50 = 100 to 1000 nM

Record summary for O=C(OCC1CCCO1)c1cccc(CN2CCCC(Nc3ccc4[nH]ncc4c3)C2)c1 (centres unmarked) : reported IC50 = < 100 nM

Record summary for CCSC(=O)c1cccc(CN2CCCC(Nc3ccc4[nH]ncc4c3)C2)c1 (centres unmarked) : reported IC50 = < 100 nM

Record summary for COC(=O)Cc1ccc(NC(=O)c2cccc(CN3CCC(Nc4cccc5cnccc45)C3)c2)cc1 (centres unmarked) : reported IC50 = < 100 nM

Record summary for O=C1OCC(CCNC(=O)c2cccc(CN3CCCC(Nc4cccc5cnccc45)C3)c2)O1 (centres unmarked) : reported IC50 = < 100 nM

Record summary for O=C(Oc1ccccc1)c1cccc(CN2CCCC(Nc3cccc4cnccc34)C2)c1 (centres unmarked) : reported IC50 = 100 to 1000 nM

Record summary for COC(=O)Cc1cccc(NC(=O)c2cccc(CN3CCC(Nc4cccc5cnccc45)C3)c2)c1 (centres unmarked) : reported IC50 = < 100 nM

Record summary for COC(=O)c1cccc(NC(=O)c2cccc(CN3CCCC(Nc4ccc5[nH]ncc5c4)C3)c2)c1 (centres unmarked) : reported IC50 = < 100 nM

Record summary for COC(=O)c1cccc(NC(=O)c2cccc(CN3CCCC(Nc4cccc5cnccc45)C3)c2)c1 (centres unmarked) : reported IC50 = < 100 nM

Record summary for CCCOC(=O)Cc1cccc(CN2CCCC(Nc3ccc4[nH]ncc4c3)C2)c1 (centres unmarked) : reported IC50 = < 100 nM

Record summary for O=C(OCc1ccccc1)c1cccc(CN2CCCC(Nc3cccc4cnccc34)C2)c1 (centres unmarked) : reported IC50 = 100 to 1000 nM

Record summary for O=C(Oc1ccccc1)c1cccc(CN2CCCC(Nc3ccc4[nH]ncc4c3)C2)c1 (centres unmarked) : reported IC50 = < 100 nM

Record summary for O=C(OCC1CCCO1)c1cccc(CN2CCCC(Nc3cccc4cnccc34)C2)c1 (centres unmarked) : reported IC50 = < 100 nM

Record summary for O=C(OCc1ccccc1)c1cccc(CN2CCCC(Nc3ccc4[nH]ncc4c3)C2)c1 (centres unmarked) : reported IC50 = < 100 nM

Record summary for COC(=O)c1cccc(CN2CCCC(Nc3cccc4cnccc34)C2)c1 (centres unmarked) : reported IC50 = 100 to 1000 nM

Record summary for O=C(NCCSC1CCOC1=O)c1cccc(CN2CCCC(Nc3cccc4cnccc34)C2)c1 (centres unmarked) : reported IC50 = < 100 nM

Record summary for CCSC(=O)c1cccc(CN2CCCC(Nc3cccc4cnccc34)C2)c1 (centres unmarked) : reported IC50 = 100 to 1000 nM

Record summary for O=C(OCC1CC1)c1cccc(CN2CCCC(Nc3ccc4[nH]ncc4c3)C2)c1 (centres unmarked) : reported IC50 = < 100 nM

Record summary for COC(=O)Cc1cccc(NC(=O)Cc2cccc(CN3CCCC(Nc4ccc5[nH]ncc5c4)C3)c2)c1 (centres unmarked) : reported IC50 = < 100 nM
